# SYSTEM: T1, Tumor Necrosis Factor-alpha (UniProt P01375 77-233)
# T1 construct: Immobilised on pipette tips or SPR chips (amine coupling or biotin capture); also called TNF-α; TNF-alpha
# T1 sequence (P01375 77-233 limits assumed): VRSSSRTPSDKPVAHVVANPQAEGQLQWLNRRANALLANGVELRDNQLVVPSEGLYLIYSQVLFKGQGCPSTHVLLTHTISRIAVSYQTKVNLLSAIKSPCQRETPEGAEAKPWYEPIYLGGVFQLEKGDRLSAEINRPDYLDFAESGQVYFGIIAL
# ASSAY PROCEDURE: SPR; reference TNF1 lead peptide
Kd Fold-Change Relative to Lead values, listed per item
VALUE TYPE: Kd Fold-Change Relative to Lead (fold)

* FERYPLKMPWSFLQSRQGSC [TNF1 D4Y+M7K double mutant] | 9.4
* FERSYLKMPWKFLQSRQGSC [TNF1-opt (D4S+P5Y+M7K+S11K quadruple mutant)] | 100
* FERDYLKMPWSFLQSRQGSC [TNF1 P5Y+M7K double mutant] | 5.8

Value source: patent US20190194358A1
